FYI, the data here is from the Human Domainome abundance scans (Beltran et al. 2025).

B1: DnaJ homolog subfamily C member 5, residues 16 to 77; numbered along this chain, Q9H3Z4 (parent)
chain: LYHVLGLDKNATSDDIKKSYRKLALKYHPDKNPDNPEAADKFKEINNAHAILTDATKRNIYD

# Variants of: B1
# test.description: abundance fitness (aPCA) (normalised: wild type 0, dead -1); higher = more abundant; growth selection in yeast, the domain comes from the species named
# assay.setup: Homo sapiens
measured.property: abundance fitness
# answer = number (no unit)

// abundance fitness lookup, variant = LYHVLGLDKNATSDDIKKSYRKLALKYHPDKNPDNPEAADKFKEINNAHAQLTDATKRNIYD [I51Q] , result: 0.036

// abundance fitness lookup, variant = LYHVLGLDKNATSDDIKKSYRKLALKYHPDKNPDNPEAADKFKEINNAHAILTDATDRNIYD [K57D] , result: -0.079

// abundance fitness lookup, variant = LYHVLGLDKNATSDDIKKSYRKLALKYHPDKMPDNPEAADKFKEINNAHAILTDATKRNIYD [N32M] , result: -0.157

// abundance fitness lookup, variant = LYHVLGLDKNATSDDIKKYYRKLALKYHPDKNPDNPEAADKFKEINNAHAILTDATKRNIYD [S19Y] , result: -0.299
